System tested: recombinant human CTLA-4 protein (human) (UniProt P16410)
Sequence (P16410 36-161 limits assumed): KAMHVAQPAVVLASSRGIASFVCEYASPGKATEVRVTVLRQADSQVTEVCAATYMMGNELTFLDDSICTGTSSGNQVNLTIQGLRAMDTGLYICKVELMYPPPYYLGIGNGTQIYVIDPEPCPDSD
Assay summary: SPR (Pioneer FE, OneStep), 25 C; 3xFLAG scFv captured by anti-FLAG M2, human CTLA-4 as analyte
Endpoint name: Kd (nM)

INSERT INTO measurements (binder, endpoint_name, observed) VALUES
  ('78-24D1 scFv (scFv, part only; not given: Linker, domain order, 3xFLAG tag, V domains shown, not shown: another chain or arm of the molecule; small tags and cut ends) VH: EVQLVESGGGLVQPGGSLRLSCAASGFTFTSYSMHWVRQAPGKGLEWVSGISGSGRSTSYADSVKGRFTISRDNSKNTLYLQMNSLRAEDTAVYYCARDLMAFNLTRAGGFDVWGQGTLVTVSS VL: DIQMTQSPSSLSASVGDRVTITCQASQDISNFLNWYQQKPGKAPKLLIYDASNLETGVPSRFSGSGSGTDFTFTISSLQPEDIATYYCQQGDAWPWTFGQGTKVEIK', 'Kd', 1.15),
  ('78-8D4 scFv (scFv, part only; not given: Linker, domain order, 3xFLAG tag, V domains shown, not shown: another chain or arm of the molecule; small tags and cut ends) VH: EVQLVESGGGLVQPGGSLRLSCAASGFTFSSYVMHWVRQAPGKGLEWVSAITWSGGGTYYADSVKGRFTISRDNSKNTLYLQMNSLRAEDTAVYYCARGRLFGLVRYGEAFDVWGQGTLVTVSS VL: DIQMTQSPSSLSASVGDRVTITCQASKDISNYLNWYQQKPGKAPKLLIYDASNLETGVPSRFSGSGSGTDFTFTISSLQPEDIATYYCQQFNSFPLTFGQGTKVEIK', 'Kd', 0.21),
  ('78-24D12 scFv (scFv, part only; not given: Linker, domain order, 3xFLAG tag, V domains shown, not shown: another chain or arm of the molecule; small tags and cut ends) VH: EVQLVESGGGLVQPGGSLRLSCAASGFTFSSYSMHWVRQAPGKGLEWVSGISGSGLSTSYADSVKGRFTISRDNSKNTLYLQMNSLRAEDTAVYYCARDLMAFNLTRTGGFDVWGQGTLVTVSS VL: DIQMTQSPSSLSASVGDRVTITCQASHDILNYLNWYQQKPGKAPKLLIYDASNLETGVPSRFSGSGSGTDFTFTISSLQPEDIATYYCQQGHAWLWTFGQGTKVEIK', 'Kd', 2.88);
